# study target: ScRvs167
# procedure text: SPOT peptide array binding signal intensity (averaged, normalized) (arbitrary units (background-subtracted, floor 0; scale differs between SH3 domains)); higher = stronger binding of the SH3 domain to the peptide
readout name: SPOT peptide array binding signal intensity
Give bare numbers.

VATSTSPKLPPRGKQ = 2350
ILARAILTIPRVLDK = 4.83

# evaluate next
Enquiry: Respond only with SPOT peptide array binding signal intensity recorded for VYTRTAFQIPGDDKI
Return: 1.83
